Data credit: patent US8940774B2

# Tested on: NIC-evoked [3H]DA release from rat striatal slices
# test-method-notes: Nicotine-evoked [3H]dopamine release assay, superfused rat striatal slices
# Assay type: cell-based
# condition-description: 100 nM analog superfused 60 minutes prior to NIC (10 μM), percent of that in the absence of analog
quantity-kind: inhibition at 0.1 µM (%)
Give just the number in %; leave the unit off.

{"compound": "c1ccc(-c2ccc[n+](CCCCCc3cc(CCCCC[n+]4cccc(-c5ccccc5)c4)cc(CCCCC[n+]4cccc(-c5ccccc5)c4)c3)c2)cc1 [GZ558A]", "inhibition at 0.1 µM (%)": 6}

Entry Cc1cc[n+](CCCC#Cc2cc(C#CCCC[n+]3ccc(C)cc3)cc(C#CCCC[n+]3ccc(C)cc3)c2)cc1 [GZ554B] : reported inhibition at 0.1 µM = ?
34

Entry Cc1cc(C)c[n+](CCCCCc2cc(CCCCC[n+]3cc(C)cc(C)c3)cc(CCCCC[n+]3cc(C)cc(C)c3)c2)c1 [GZ557A] : reported inhibition at 0.1 µM = ?
39

Entry Cc1cccc[n+]1CCCCCc1cc(CCCCC[n+]2ccccc2C)cc(CCCCC[n+]2ccccc2C)c1 [GZ555B] : reported inhibition at 0.1 µM = ?
25

Entry C(#Cc1cc(C#CCCC[n+]2cccc3ccccc32)cc(C#CCCC[n+]2cccc3ccccc32)c1)CCC[n+]1cccc2ccccc21 [GZ552A] : reported inhibition at 0.1 µM = ?
72

Entry Cc1cc[n+](CCCC#Cc2cc(C#CCCC[n+]3ccc(C)c(C)c3)cc(C#CCCC[n+]3ccc(C)c(C)c3)c2)cc1C [GZ553B] : reported inhibition at 0.1 µM = ?
0

Entry CCCCc1ccc[n+](CCCC#Cc2cc(C#CCCC[n+]3cccc(CCCC)c3)cc(C#CCCC[n+]3cccc(CCCC)c3)c2)c1 [GZ551A] : reported inhibition at 0.1 µM = ?
52

Entry Cc1ccc[n+](CCCCCc2cc(CCCCC[n+]3cccc(C)c3)cc(CCCCC[n+]3cccc(C)c3)c2)c1 [GZ555A] : reported inhibition at 0.1 µM = ?
42

Entry Cc1cccc[n+]1CCCC#Cc1cc(C#CCCC[n+]2ccccc2C)cc(C#CCCC[n+]2ccccc2C)c1 [GZ554A] : reported inhibition at 0.1 µM = ?
68

Entry Cc1cc(C)c[n+](CCCC#Cc2cc(C#CCCC[n+]3cc(C)cc(C)c3)cc(C#CCCC[n+]3cc(C)cc(C)c3)c2)c1 [GZ553A] : reported inhibition at 0.1 µM = ?
31

Entry CN1CCC[C@H]1c1ccc[n+](CCCCCc2cc(CCCCC[n+]3cccc([C@@H]4CCCN4C)c3)cc(CCCCC[n+]3cccc([C@@H]4CCCN4C)c3)c2)c1 [GZ558C] : reported inhibition at 0.1 µM = ?
35

Entry Cc1cc[n+](CCCCCc2cc(CCCCC[n+]3ccc(C)c(C)c3)cc(CCCCC[n+]3ccc(C)c(C)c3)c2)cc1C [GZ557B] : reported inhibition at 0.1 µM = ?
50

Entry c1ccc2c[n+](CCCCCc3cc(CCCCC[n+]4ccc5ccccc5c4)cc(CCCCC[n+]4ccc5ccccc5c4)c3)ccc2c1 [GZ556B] : reported inhibition at 0.1 µM = ?
28

Entry CCCCc1ccc[n+](CCCCCc2cc(CCCCC[n+]3cccc(CCCC)c3)cc(CCCCC[n+]3cccc(CCCC)c3)c2)c1 [GZ558B] : reported inhibition at 0.1 µM = ?
68

* * *

# system-under-test: α7-type neuronal nicotinic acetylcholine receptors (Rattus norvegicus)
# Construct: from tissue; host or cells: rat brain membranes (whole brain without cortex, striatum and cerebellum)
# Sequence (Q05941 23-502): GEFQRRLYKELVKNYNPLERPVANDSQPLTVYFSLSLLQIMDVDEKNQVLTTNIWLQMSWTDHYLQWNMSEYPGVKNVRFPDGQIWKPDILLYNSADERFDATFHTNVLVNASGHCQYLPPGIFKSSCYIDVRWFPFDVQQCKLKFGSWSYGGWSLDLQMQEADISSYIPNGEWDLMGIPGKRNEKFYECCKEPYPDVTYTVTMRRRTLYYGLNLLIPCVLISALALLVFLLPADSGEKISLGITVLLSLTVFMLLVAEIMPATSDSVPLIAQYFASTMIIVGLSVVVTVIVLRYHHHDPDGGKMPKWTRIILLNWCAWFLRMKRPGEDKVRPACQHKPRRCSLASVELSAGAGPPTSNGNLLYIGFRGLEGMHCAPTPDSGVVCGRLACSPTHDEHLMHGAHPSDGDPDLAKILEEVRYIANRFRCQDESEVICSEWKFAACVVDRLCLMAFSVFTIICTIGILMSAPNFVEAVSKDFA
# test-method-notes: Inhibition of [3H]Methyllycaconitine (MLA) binding assay, rat brain membranes
# condition-description: % inhibition at 100 nM concentration of analog; rat brain membranes; 2.5 nM [3H]MLA; read-out: Inhibition of [3H]MLA binding
quantity-kind: inhibition at 0.1 µM

Some compounds with recorded inhibition at 0.1 µM:
{"compound": "Cc1cc[n+](CCCC#Cc2cc(C#CCCC[n+]3ccc(C)cc3)cc(C#CCCC[n+]3ccc(C)cc3)c2)cc1 [GZ554B]", "system-under-test": "α7-type neuronal nicotinic acetylcholine receptors (Rattus norvegicus)", "inhibition at 0.1 µM": "0%"}
{"compound": "CCCCc1ccc[n+](CCCC#Cc2cc(C#CCCC[n+]3cccc(CCCC)c3)cc(C#CCCC[n+]3cccc(CCCC)c3)c2)c1 [GZ551A]", "system-under-test": "α7-type neuronal nicotinic acetylcholine receptors (Rattus norvegicus)", "inhibition at 0.1 µM": "30%"}
{"compound": "Cc1cc(C)c[n+](CCCC#Cc2cc(C#CCCC[n+]3cc(C)cc(C)c3)cc(C#CCCC[n+]3cc(C)cc(C)c3)c2)c1 [GZ553A]", "system-under-test": "α7-type neuronal nicotinic acetylcholine receptors (Rattus norvegicus)", "inhibition at 0.1 µM": "0%"}
{"compound": "CN1CCC[C@H]1c1ccc[n+](CCCC#Cc2cc(C#CCCC[n+]3cccc([C@@H]4CCCN4C)c3)cc(C#CCCC[n+]3cccc([C@@H]4CCCN4C)c3)c2)c1 [GZ551B]", "system-under-test": "α7-type neuronal nicotinic acetylcholine receptors (Rattus norvegicus)", "inhibition at 0.1 µM": "4.2%"}
{"compound": "Cc1cccc[n+]1CCCCCc1cc(CCCCC[n+]2ccccc2C)cc(CCCCC[n+]2ccccc2C)c1 [GZ555B]", "system-under-test": "α7-type neuronal nicotinic acetylcholine receptors (Rattus norvegicus)", "inhibition at 0.1 µM": "0%"}

Now look at this entry.
Entry Cc1cc[n+](CCCC#Cc2cc(C#CCCC[n+]3ccc(C)c(C)c3)cc(C#CCCC[n+]3ccc(C)c(C)c3)c2)cc1C [GZ553B] : reported inhibition at 0.1 µM = ?
1.8%

* * *

# system-under-test: Rat Striatal Nicotinic Receptors (Rattus norvegicus, UniProt P09483+P12390)
# Construct: from tissue; host or cells: rat striatal membranes
# Sequence (P09483 31-630): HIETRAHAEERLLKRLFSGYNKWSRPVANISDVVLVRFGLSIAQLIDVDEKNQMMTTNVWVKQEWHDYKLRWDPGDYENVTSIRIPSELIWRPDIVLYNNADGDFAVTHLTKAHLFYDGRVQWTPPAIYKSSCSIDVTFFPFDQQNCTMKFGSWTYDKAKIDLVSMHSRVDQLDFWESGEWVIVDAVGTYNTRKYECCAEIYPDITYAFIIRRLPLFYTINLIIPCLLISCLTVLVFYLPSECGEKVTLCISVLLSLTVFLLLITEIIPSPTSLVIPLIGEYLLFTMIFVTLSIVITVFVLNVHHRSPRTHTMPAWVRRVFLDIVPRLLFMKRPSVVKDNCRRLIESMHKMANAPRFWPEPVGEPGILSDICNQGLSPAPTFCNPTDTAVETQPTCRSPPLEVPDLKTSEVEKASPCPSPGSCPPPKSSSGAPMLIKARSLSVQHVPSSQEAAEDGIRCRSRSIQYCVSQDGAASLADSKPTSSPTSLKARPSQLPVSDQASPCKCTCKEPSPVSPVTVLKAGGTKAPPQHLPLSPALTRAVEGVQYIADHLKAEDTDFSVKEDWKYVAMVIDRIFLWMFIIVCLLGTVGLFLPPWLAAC
# Sequence (P12390 25-500): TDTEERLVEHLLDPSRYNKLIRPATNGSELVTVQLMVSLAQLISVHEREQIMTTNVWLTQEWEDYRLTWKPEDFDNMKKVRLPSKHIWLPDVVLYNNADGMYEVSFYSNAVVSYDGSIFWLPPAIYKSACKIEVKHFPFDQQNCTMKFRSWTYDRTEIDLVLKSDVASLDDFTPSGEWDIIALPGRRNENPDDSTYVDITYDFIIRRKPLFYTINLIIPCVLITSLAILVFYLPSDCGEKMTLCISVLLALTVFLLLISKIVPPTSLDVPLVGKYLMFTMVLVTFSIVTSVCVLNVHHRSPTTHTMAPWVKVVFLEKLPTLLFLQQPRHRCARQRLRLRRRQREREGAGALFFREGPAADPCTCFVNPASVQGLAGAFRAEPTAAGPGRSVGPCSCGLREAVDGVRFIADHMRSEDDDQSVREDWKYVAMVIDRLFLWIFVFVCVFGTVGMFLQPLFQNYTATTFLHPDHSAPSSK
# test-method-notes: Inhibition of [3H]Nicotine (NIC) binding assay, rat striatal membranes
# condition-description: % inhibition at 100 nM concentration of analog, 3 nM [3H]NIC
inhibition at 0.1 µM overview
Give just the number in %; leave the unit off.

{"compound": "Cc1cc[n+](CCCC#Cc2cc(C#CCCC[n+]3ccc(C)cc3)cc(C#CCCC[n+]3ccc(C)cc3)c2)cc1 [GZ554B]", "system-under-test": "Rat Striatal Nicotinic Receptors (Rattus norvegicus, UniProt P09483+P12390)", "inhibition at 0.1 µM [%]": 21}

Entry CCCCc1ccc[n+](CCCC#Cc2cc(C#CCCC[n+]3cccc(CCCC)c3)cc(C#CCCC[n+]3cccc(CCCC)c3)c2)c1 [GZ551A] : reported inhibition at 0.1 µM = ?
6.8

Entry c1ccc(-c2ccc[n+](CCCCCc3cc(CCCCC[n+]4cccc(-c5ccccc5)c4)cc(CCCCC[n+]4cccc(-c5ccccc5)c4)c3)c2)cc1 [GZ558A] : reported inhibition at 0.1 µM = ?
14

Entry CN1CCC[C@H]1c1ccc[n+](CCCC#Cc2cc(C#CCCC[n+]3cccc([C@@H]4CCCN4C)c3)cc(C#CCCC[n+]3cccc([C@@H]4CCCN4C)c3)c2)c1 [GZ551B] : reported inhibition at 0.1 µM = ?
44

Entry Cc1cc[n+](CCCCCc2cc(CCCCC[n+]3ccc(C)c(C)c3)cc(CCCCC[n+]3ccc(C)c(C)c3)c2)cc1C [GZ557B] : reported inhibition at 0.1 µM = ?
9.3

Entry Cc1ccc[n+](CCCCCc2cc(CCCCC[n+]3cccc(C)c3)cc(CCCCC[n+]3cccc(C)c3)c2)c1 [GZ555A] : reported inhibition at 0.1 µM = ?
14

* * *

# system-under-test: α7-type neuronal nicotinic acetylcholine receptors (Rattus norvegicus)
# Construct: from tissue; host or cells: rat brain membranes (whole brain without cortex, striatum and cerebellum)
# test-method-notes: Inhibition of [3H]Methyllycaconitine (MLA) binding assay, rat brain membranes
# condition-description: % inhibition at 100 nM concentration of analog; rat brain membranes; 2.5 nM [3H]MLA; read-out: Inhibition of [3H]MLA binding
# Description: Rat brain was dissected into the whole brain tissue without cortex, striatum and cerebellum and was frozen in liquid nitrogen and stored at −70° C. until use. […] The binding of [^3H]MLA to probe α7-type neuronal nicotinic acetylcholine receptors was measured using a modification of the method of Davies at al., “Characterisation of the binding of [^3H]methyllycaconitine (MLA): a radioligand for labelling α7-type neuronal nicotinic acetylcholine receptors,” Neuropharmacology, 38, 679-690 (1999). […]
quantity-kind: inhibition at 0.1 µM (%)
Give just the number in %; leave the unit off.

Some compounds with recorded inhibition at 0.1 µM:
{"compound": "C(#Cc1cc(C#CCCC[n+]2ccc3ccccc3c2)cc(C#CCCC[n+]2ccc3ccccc3c2)c1)CCC[n+]1ccc2ccccc2c1 [GZ552B]", "system-under-test": "α7-type neuronal nicotinic acetylcholine receptors (Rattus norvegicus)", "quantity-kind": "inhibition at 0.1 µM", "assay-result": 4.5}
{"compound": "c1ccc2c[n+](CCCCCc3cc(CCCCC[n+]4ccc5ccccc5c4)cc(CCCCC[n+]4ccc5ccccc5c4)c3)ccc2c1 [GZ556B]", "system-under-test": "α7-type neuronal nicotinic acetylcholine receptors (Rattus norvegicus)", "quantity-kind": "inhibition at 0.1 µM", "assay-result": 2.5}
{"compound": "CCCCc1ccc[n+](CCCCCc2cc(CCCCC[n+]3cccc(CCCC)c3)cc(CCCCC[n+]3cccc(CCCC)c3)c2)c1 [GZ558B]", "system-under-test": "α7-type neuronal nicotinic acetylcholine receptors (Rattus norvegicus)", "quantity-kind": "inhibition at 0.1 µM", "assay-result": 4.4}

Now look at this entry.
Entry Cc1cccc[n+]1CCCC#Cc1cc(C#CCCC[n+]2ccccc2C)cc(C#CCCC[n+]2ccccc2C)c1 [GZ554A] : reported inhibition at 0.1 µM = ?
0
